Origin of measurements: patent US12097184B2

Test: Salt screen using solutions in ethanol, appearance/colour on storage
Conditions: solvent removed, stored at RT under Ar, light-protected; appearance after addition of EtOH
quantity kind: Result at 6 days

> print(dat)
   compound.smiles     quantity.kind  experimental.value
1   O=C(O)CCC(=O)O  Result at 6 days                  ↑C
2    O=C(O)CC(=O)O  Result at 6 days                  ↑C
3  O=C(O)c1ccccc1O  Result at 6 days                  ↑C

---

# reported Results at 18 h; entries follow
Test: Salt screen using solutions in ethanol, appearance/colour on storage
Settings: ethanol solution, storage overnight at RT, Ar, light-protected
Please give only the number in your answer, with no unit.

> print(dat)
                      compound    quantity.kind  experimental.value
1  O=C(O)c1ccccc1O [Salicylic]  Results at 18 h                   0

Now for a further compound.
Q: If you can, please state the reported Results at 18 h value of O=C1O[C@H]([C@@H](O)CO)C(O)=C1O [Ascorbic] .
A: 0
